Source of measurements: ChEMBL document CHEMBL1201861

Tested on: ASPC1;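 also: growth inhibition of AsPC-1 cells, read out with a cell viability assay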
METHOD: cells
Type: functional, cell-based
CONDITIONS: Homo sapiens
Description: SANGER: Inhibition of human AsPC-1 cell growth in a cell viability assay.
pIC50: −log10 of the molar value.
ATTRIBUTE MEASURED: pIC50

// fetch pIC50; item: Cn1cc(/C=C2\C(=O)Nc3cccnc32)c2ccccc21 ; system: ASPC1 < 5.70

Given CC(O)(CS(=O)(=O)c1ccc(F)cc1)C(=O)Nc1ccc(C#N)c(C(F)(F)F)c1 (stereo not given) [BICALUTAMIDE] , report its pIC50 on ASPC1. < 5.99

Give pIC50 for this entry on ASPC1: CCNC(=O)c1noc(-c2cc(C(C)C)c(O)cc2O)c1-c1ccc(CN2CCOCC2)cc1 < 6.59

Identify measured pIC50 obtained with ASPC1 for C/C=C(/C)C(=O)O[C@H]1C(C)=C2[C@H]([C@@H]1OC(=O)CCCCCCC)[C@@](C)(OC(C)=O)C[C@H](OC(=O)CCC)[C@@]1(O)[C@H]2OC(=O)[C@@]1(C)O . < 6.29

Write down measured pIC50 (ASPC1) for this compound. CO[C@@]12[C@H](COC(N)=O)C3=C(C(=O)C(C)=C(N)C3=O)N1C[C@@H]1N[C@@H]12 5.54

---

Exercise: state measured pIC50 for each of the compounds provided.
System: HN
METHOD: cells
Assay type: functional, cell-based
CONDITIONS: Homo sapiens
Description: SANGER: Inhibition of human HN cell growth in a cell viability assay.
FYI, pIC50 means -log10 of a concentration in mol per litre.

Report value only: pIC50, HN, CC[C@]1(O)C[C@@H]2CN(CCc3c([nH]c4ccccc34)[C@@](C(=O)OC)(c3cc4c(cc3OC)N(C)[C@H]3[C@@](O)(C(=O)OC)[C@H](OC(C)=O)[C@]5(CC)C=CCN6CC[C@]43[C@@H]65)C2)C1 8.38

Send back HN pIC50 of NC(=O)c1ncn([C@@H]2O[C@H](COP(=O)(O)O)[C@@H](O)[C@H]2O)c1N only. 3.60

Retrieve pIC50 on HN; query CC(=O)c1c(C)c2cnc(Nc3ccc(N4CCNCC4)cn3)nc2n(C2CCCC2)c1=O 5.81

Report pIC50 under test system HN for COc1cc(Nc2c(C#N)cnc3cc(OCCCN4CCN(C)CC4)c(OC)cc23)c(Cl)cc1Cl . 5.72

---

Tested on: HuO-3N1;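 also: cell viability readout used to measure how strongly compounds suppress proliferation of human HuO-3N1 cells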
METHOD: cells
Format: functional, cell-based
CONDITIONS: Homo sapiens
Description: SANGER: Inhibition of human HuO-3N1 cell growth in a cell viability assay.
ATTRIBUTE MEASURED: IC50

Give the measured IC50 for CCNC(=O)c1noc(-c2cc(C(C)C)c(O)cc2O)c1-c1ccc(CN2CCOCC2)cc1 [LUMINESPIB] > 0.256 µM

Provide IC50 value for the following molecule: CO[C@@]12[C@H](COC(N)=O)C3=C(C(=O)C(C)=C(N)C3=O)N1C[C@@H]1N[C@@H]12 [MITOMYCIN] 6.45 µM

Please report IC50 for the following molecule: CC(=O)c1c(C)c2cnc(Nc3ccc(N4CCNCC4)cn3)nc2n(C2CCCC2)c1=O [PALBOCICLIB] > 4 µM

Tell me measured IC50 for NC(=O)c1ncn([C@@H]2O[C@H](COP(=O)(O)O)[C@@H](O)[C@H]2O)c1N please. 89.4 µM

Identify the reported IC50 for the following entry. CC(C)=CC[C@@H](O)C1=CC(=O)c2c(O)ccc(O)c2C1=O [SHIKONIN] 4.43 µM

Please report the measured IC50 for N#C/C(=C1/Nc2ccccc2S1)c1ccnc(NCCc2cccnc2)n1 0.815 µM

Output measured IC50 for this item: O=c1cc(N2CCOCC2)oc2c(-c3cccc4c3sc3ccccc34)cccc12 0.466 µM

Recall and state the measured IC50 for C[C@]1(c2nc3c(C(N)=O)cccc3[nH]2)CCCN1 [VELIPARIB] . > 5 µM
